test system: Staphylococcus aureus; assay: Antibacterial activity against hospital-acquired methicillin-sensitive Staphylococcus aureus 448/11 after 18 hrs by twofold serial agar dilution technique; assay type: functional; conditions: 448/11, 18 h
Please provide measured MIC for the entries that follow.
I only need the number, in µg/mL, no unit after it.

Please fill in: MIC reported for CC[C@@H](C(=O)[C@@H](C)[C@@H](O)[C@H](C)[C@@H]1O[C@@H]([C@@H](CC)C(=O)O)CC[C@@H]1C)[C@H]1O[C@]2(C=C[C@@H](O)[C@]3(CC[C@@](C)([C@H]4CC[C@](O)(CC)[C@H](C)O4)O3)O2)[C@H](C)C[C@@H]1C = 2

Form field MIC, entry CC[C@@H](C(=O)[C@@H](C)[C@@H](O)[C@H](C)[C@@H]1O[C@@H]([C@@H](CC)C(=O)NCCCN2CCCCC2)CC[C@@H]1C)[C@H]1O[C@]2(C=C[C@@H](O)[C@]3(CC[C@@](C)([C@H]4CC[C@](O)(CC)[C@H](C)O4)O3)O2)[C@H](C)C[C@@H]1C : 32

Reported MIC ( CC[C@@H](C(=O)[C@@H](C)[C@@H](O)[C@H](C)[C@@H]1O[C@@H]([C@@H](CC)C(=O)Nc2ccccc2)CC[C@@H]1C)[C@H]1O[C@]2(C=C[C@@H](O)[C@]3(CC[C@@](C)([C@H]4CC[C@](O)(CC)[C@H](C)O4)O3)O2)[C@H](C)C[C@@H]1C ) = 2

get_value(item= CC[C@@]1([C@@H]2O[C@@H]([C@H]3O[C@@](O)(CO)[C@H](C)C[C@@H]3C)C[C@@H]2C)CC[C@H]([C@]2(C)CC[C@]3(C[C@H](O)[C@@H](C)[C@@H]([C@@H](C)[C@@H](OC)[C@H](C)C(=O)O)O3)O2)O1 , readout=MIC) returns 2

* * *

system: Staphylococcus aureus; experiment: Antibacterial activity against hospital-acquired methicillin-resistant Staphylococcus aureus 481/11 after 18 hrs by twofold serial agar dilution technique; assay type: functional; conditions: 481/11, 18 h
Property measured: MIC (µg/mL)
Unit µg/mL implied. Number only.

Reading of MIC for CC[C@@H](C(=O)[C@@H](C)[C@@H](O)[C@H](C)[C@@H]1O[C@@H]([C@@H](CC)C(=O)NCCCN2CCCCC2)CC[C@@H]1C)[C@H]1O[C@]2(C=C[C@@H](O)[C@]3(CC[C@@](C)([C@H]4CC[C@](O)(CC)[C@H](C)O4)O3)O2)[C@H](C)C[C@@H]1C with Staphylococcus aureus: 64

Known value: Staphylococcus aureus MIC of the compound CC[C@@H](C(=O)[C@@H](C)[C@@H](O)[C@H](C)[C@@H]1O[C@@H]([C@@H](CC)C(=O)Nc2ccccc2)CC[C@@H]1C)[C@H]1O[C@]2(C=C[C@@H](O)[C@]3(CC[C@@](C)([C@H]4CC[C@](O)(CC)[C@H](C)O4)O3)O2)[C@H](C)C[C@@H]1C equals 4

The reported Staphylococcus aureus MIC of CC[C@@]1([C@@H]2O[C@@H]([C@H]3O[C@@](O)(CO)[C@H](C)C[C@@H]3C)C[C@@H]2C)CC[C@H]([C@]2(C)CC[C@]3(C[C@H](O)[C@@H](C)[C@@H]([C@@H](C)[C@@H](OC)[C@H](C)C(=O)O)O3)O2)O1 [MONENSIN] is 2

Item CC[C@@H](C(=O)[C@@H](C)[C@@H](O)[C@H](C)[C@@H]1O[C@@H]([C@@H](CC)C(=O)O)CC[C@@H]1C)[C@H]1O[C@]2(C=C[C@@H](O)[C@]3(CC[C@@](C)([C@H]4CC[C@](O)(CC)[C@H](C)O4)O3)O2)[C@H](C)C[C@@H]1C [SALINOMYCIN] was tested on Staphylococcus aureus; the reported MIC is 1

* * *

Kindly state zone of inhibition at 400 µg/disc for each of the entries shown.
test system: Staphylococcus epidermidis; assay: Antibacterial activity against Staphylococcus epidermidis ATCC 35984 assessed as zone of inhibition at 400 ug/disc after 18 hrs by disc diffusion method; format: functional; conditions: ATCC 35984, 18 h, read-out: DIZ
Give your result in mm as a bare value.

// sample CC[C@@H](C(=O)[C@@H](C)[C@@H](O)[C@H](C)[C@@H]1O[C@@H]([C@@H](CC)C(=O)Nc2ccccc2)CC[C@@H]1C)[C@H]1O[C@]2(C=C[C@@H](O)[C@]3(CC[C@@](C)([C@H]4CC[C@](O)(CC)[C@H](C)O4)O3)O2)[C@H](C)C[C@@H]1C , its zone of inhibition at 400 µg/disc was 20

In plain terms, CC[C@@H](C(=O)[C@@H](C)[C@@H](O)[C@H](C)[C@@H]1O[C@@H]([C@@H](CC)C(=O)NCCc2c[nH]c3ccccc23)CC[C@@H]1C)[C@H]1O[C@]2(C=C[C@@H](O)[C@]3(CC[C@@](C)([C@H]4CC[C@](O)(CC)[C@H](C)O4)O3)O2)[C@H](C)C[C@@H]1C has a documented zone of inhibition at 400 µg/disc of 10

Reported zone of inhibition at 400 µg/disc of O=C(O)c1cn(C2CC2)c2cc(N3CCNCC3)c(F)cc2c1=O : 32

Measured zone of inhibition at 400 µg/disc, CC[C@@H](C(=O)[C@@H](C)[C@@H](O)[C@H](C)[C@@H]1O[C@@H]([C@@H](CC)C(=O)NCc2ccccc2)CC[C@@H]1C)[C@H]1O[C@]2(C=C[C@@H](O)[C@]3(CC[C@@](C)([C@H]4CC[C@](O)(CC)[C@H](C)O4)O3)O2)[C@H](C)C[C@@H]1C : 10

For record CC[C@@H](C(=O)[C@@H](C)[C@@H](O)[C@H](C)[C@@H]1O[C@@H]([C@@H](CC)C(=O)NCCOCCOCCOC)CC[C@@H]1C)[C@H]1O[C@]2(C=C[C@@H](O)[C@]3(CC[C@@](C)([C@H]4CC[C@](O)(CC)[C@H](C)O4)O3)O2)[C@H](C)C[C@@H]1C the listed zone of inhibition at 400 µg/disc is 10

// zone of inhibition at 400 µg/disc lookup, molecule = C=CCNC(=O)[C@H](CC)[C@H]1CC[C@H](C)[C@H]([C@@H](C)[C@H](O)[C@H](C)C(=O)[C@H](CC)[C@H]2O[C@]3(C=C[C@@H](O)[C@]4(CC[C@@](C)([C@H]5CC[C@](O)(CC)[C@H](C)O5)O4)O3)[C@H](C)C[C@@H]2C)O1 [SALINOMYCIN ALLYL AMIDE] , result: 10

zone of inhibition at 400 µg/disc reading for CCCCNC(=O)[C@H](CC)[C@H]1CC[C@H](C)[C@H]([C@@H](C)[C@H](O)[C@H](C)C(=O)[C@H](CC)[C@H]2O[C@]3(C=C[C@@H](O)[C@]4(CC[C@@](C)([C@H]5CC[C@](O)(CC)[C@H](C)O5)O4)O3)[C@H](C)C[C@@H]2C)O1 : 10

zone of inhibition at 400 µg/disc for CC[C@@H](C(=O)[C@@H](C)[C@@H](O)[C@H](C)[C@@H]1O[C@@H]([C@@H](CC)C(=O)O)CC[C@@H]1C)[C@H]1O[C@]2(C=C[C@@H](O)[C@]3(CC[C@@](C)([C@H]4CC[C@](O)(CC)[C@H](C)O4)O3)O2)[C@H](C)C[C@@H]1C is 30

So for CC[C@@H](C(=O)[C@@H](C)[C@@H](O)[C@H](C)[C@@H]1O[C@@H]([C@@H](CC)C(=O)NCCCN2CCCCC2)CC[C@@H]1C)[C@H]1O[C@]2(C=C[C@@H](O)[C@]3(CC[C@@](C)([C@H]4CC[C@](O)(CC)[C@H](C)O4)O3)O2)[C@H](C)C[C@@H]1C , the logged zone of inhibition at 400 µg/disc turned out to be 11

* * *

tested on: Staphylococcus aureus; assay: Antibacterial activity against hospital-acquired methicillin-resistant Staphylococcus aureus 400/10 after 18 hrs by twofold serial agar dilution technique; format: functional; conditions: 400/10, 18 h
Kindly supply the reported MIC values for the records listed here.
Provide only the numeric value, understood in µg/mL.

Measured MIC for this entry CC[C@@H](C(=O)[C@@H](C)[C@@H](O)[C@H](C)[C@@H]1O[C@@H]([C@@H](CC)C(=O)NCCCN2CCCCC2)CC[C@@H]1C)[C@H]1O[C@]2(C=C[C@@H](O)[C@]3(CC[C@@](C)([C@H]4CC[C@](O)(CC)[C@H](C)O4)O3)O2)[C@H](C)C[C@@H]1C on Staphylococcus aureus: 64

Bench note, Staphylococcus aureus: CC[C@@]1([C@@H]2O[C@@H]([C@H]3O[C@@](O)(CO)[C@H](C)C[C@@H]3C)C[C@@H]2C)CC[C@H]([C@]2(C)CC[C@]3(C[C@H](O)[C@@H](C)[C@@H]([C@@H](C)[C@@H](OC)[C@H](C)C(=O)O)O3)O2)O1 , MIC reads 2

Measured MIC (Staphylococcus aureus), entry CC[C@@H](C(=O)[C@@H](C)[C@@H](O)[C@H](C)[C@@H]1O[C@@H]([C@@H](CC)C(=O)Nc2ccccc2)CC[C@@H]1C)[C@H]1O[C@]2(C=C[C@@H](O)[C@]3(CC[C@@](C)([C@H]4CC[C@](O)(CC)[C@H](C)O4)O3)O2)[C@H](C)C[C@@H]1C : 4

Bench note, Staphylococcus aureus: CC[C@@H](C(=O)[C@@H](C)[C@@H](O)[C@H](C)[C@@H]1O[C@@H]([C@@H](CC)C(=O)O)CC[C@@H]1C)[C@H]1O[C@]2(C=C[C@@H](O)[C@]3(CC[C@@](C)([C@H]4CC[C@](O)(CC)[C@H](C)O4)O3)O2)[C@H](C)C[C@@H]1C , MIC reads 1

Source of measurements: ChEMBL document CHEMBL2046376
